These measurements were taken from ChEMBL document CHEMBL4428049.

Experiment: Tmax in CD1 mouse at 5 mg/kg administered via oral gavage by HPLC/MS/MS analysis
Assay type: ADME, organism-based
Details: in vivo
reported.property: Tmax (h)
Respond numerically; units are h and should not be typed.

// query Kindly indicate its recorded Tmax. Item: CCn1nc(C(C)(C)C)cc1Nc1nc(-c2ccc(-n3cnc(C)c3)c(F)c2)cs1
// result 1

====

Test: Protein binding in plasma (unknown origin)
Format: ADME, cell-free
Settings: read-out: PPB (converted)
reported.property: fraction unbound
Just the number, please, no unit after it.

// query Supply measured fraction unbound of CCn1nc(C(C)(C)C)cc1Nc1nc(-c2ccc(-n3cnc(C)c3)c(F)c2)cs1 in your reply.
// result 0.006
